Value source: ChEMBL document CHEMBL1150386

EXPERIMENTAL TARGET: Acetylcholinesterase (Homo sapiens)
Sequence (P22303 whole entry): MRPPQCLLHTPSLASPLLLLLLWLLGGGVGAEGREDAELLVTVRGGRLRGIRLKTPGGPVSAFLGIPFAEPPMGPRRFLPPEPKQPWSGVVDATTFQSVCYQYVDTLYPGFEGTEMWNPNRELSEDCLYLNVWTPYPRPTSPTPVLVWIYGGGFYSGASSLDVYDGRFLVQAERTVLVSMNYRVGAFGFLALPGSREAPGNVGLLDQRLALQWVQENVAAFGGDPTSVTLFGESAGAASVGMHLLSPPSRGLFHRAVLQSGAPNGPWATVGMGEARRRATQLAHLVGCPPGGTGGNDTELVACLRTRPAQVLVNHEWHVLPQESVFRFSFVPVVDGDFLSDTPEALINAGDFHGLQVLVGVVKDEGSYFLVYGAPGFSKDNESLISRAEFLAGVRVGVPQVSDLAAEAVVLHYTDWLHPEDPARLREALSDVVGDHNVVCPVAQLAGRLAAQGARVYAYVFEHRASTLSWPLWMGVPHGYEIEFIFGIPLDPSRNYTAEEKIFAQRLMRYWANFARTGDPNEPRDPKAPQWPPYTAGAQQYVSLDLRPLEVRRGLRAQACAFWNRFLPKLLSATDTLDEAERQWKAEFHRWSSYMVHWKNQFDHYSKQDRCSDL
EXPERIMENTAL READOUT: pKi
// pKi here means minus log10 of the molar concentration (mol/L)

Query: If you can, please state the reported pKi value of CCC1=CC2Cc3nc4cc(Cl)ccc4c(N)c3[C@@H](C1)C2 [HUPRINE X] .
Result: 9.17
